# MEASUREMENT TARGET: ErbB2 insYVMA (HER2-YVMA, SEQ ID NO: 2) (Homo sapiens, UniProt P04626, INS775YVMA/P1170A)
# Sequence (P04626 with tags, fused parts or gaps INS775YVMA/P1170A limits assumed): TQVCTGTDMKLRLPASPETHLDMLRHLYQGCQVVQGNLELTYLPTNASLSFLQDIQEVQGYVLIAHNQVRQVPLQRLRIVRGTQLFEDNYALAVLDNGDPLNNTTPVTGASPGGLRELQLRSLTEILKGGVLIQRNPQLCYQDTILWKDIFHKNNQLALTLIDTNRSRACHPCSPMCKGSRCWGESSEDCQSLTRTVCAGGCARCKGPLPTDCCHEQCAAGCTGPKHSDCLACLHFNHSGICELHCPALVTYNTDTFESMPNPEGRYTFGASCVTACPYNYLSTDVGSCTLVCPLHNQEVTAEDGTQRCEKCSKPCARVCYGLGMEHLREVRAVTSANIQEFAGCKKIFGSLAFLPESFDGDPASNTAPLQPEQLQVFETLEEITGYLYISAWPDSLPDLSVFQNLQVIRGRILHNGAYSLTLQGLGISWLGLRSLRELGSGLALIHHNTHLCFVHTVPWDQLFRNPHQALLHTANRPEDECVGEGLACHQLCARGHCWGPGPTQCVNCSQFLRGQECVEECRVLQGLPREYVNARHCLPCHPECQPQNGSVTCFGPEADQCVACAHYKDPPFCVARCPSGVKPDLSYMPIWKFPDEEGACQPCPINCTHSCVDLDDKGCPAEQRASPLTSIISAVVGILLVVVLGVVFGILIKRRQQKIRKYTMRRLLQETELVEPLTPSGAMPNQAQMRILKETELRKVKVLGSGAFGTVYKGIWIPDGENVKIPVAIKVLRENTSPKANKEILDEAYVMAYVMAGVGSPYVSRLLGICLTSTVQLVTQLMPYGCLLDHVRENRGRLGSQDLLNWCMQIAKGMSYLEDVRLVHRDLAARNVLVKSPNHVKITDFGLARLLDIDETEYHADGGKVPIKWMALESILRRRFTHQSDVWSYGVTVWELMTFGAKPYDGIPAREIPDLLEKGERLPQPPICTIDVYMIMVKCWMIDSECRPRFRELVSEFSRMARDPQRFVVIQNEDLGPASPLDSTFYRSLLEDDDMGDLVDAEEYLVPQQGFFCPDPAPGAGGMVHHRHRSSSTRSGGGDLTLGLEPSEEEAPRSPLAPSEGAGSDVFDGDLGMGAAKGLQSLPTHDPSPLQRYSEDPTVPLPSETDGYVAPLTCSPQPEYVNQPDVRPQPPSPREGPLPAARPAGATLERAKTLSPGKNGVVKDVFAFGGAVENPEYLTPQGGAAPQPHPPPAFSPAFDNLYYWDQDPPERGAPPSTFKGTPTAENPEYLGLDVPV
# TEST DESCRIPTION: biochemical
# ASSAY CONTEXT: ErbB2 insYVMA enzyme assay; read-out: Assay 1 IC50
pIC50: −log10 of the molar value.

STRUCTURE SMILES STRING: Cc1cc(Nc2ncnc3cnc(N4CCC5(COC5)C4)nc23)ccc1Oc1ccc2c(c1)ncn2C
MEASUREMENT TARGET: ErbB2 insYVMA (HER2-YVMA, SEQ ID NO: 2) (Homo sapiens, UniProt P04626, INS775YVMA/P1170A)
pIC50: 7.23
--
STRUCTURE SMILES STRING: Cc1cc(Nc2ncnc3cnc(N4CC5(C4)CC(O)(C(F)F)C5)nc23)ccc1Oc1ccc2c(c1)ncn2C
MEASUREMENT TARGET: ErbB2 insYVMA (HER2-YVMA, SEQ ID NO: 2) (Homo sapiens, UniProt P04626, INS775YVMA/P1170A)
pIC50: 7.39
--
STRUCTURE SMILES STRING: CSc1ncc2ncnc(Nc3ccc(Oc4ccc5c(c4)ncn5C)c(C)c3)c2n1
MEASUREMENT TARGET: ErbB2 insYVMA (HER2-YVMA, SEQ ID NO: 2) (Homo sapiens, UniProt P04626, INS775YVMA/P1170A)
pIC50: 7.71
--
STRUCTURE SMILES STRING: COC1CN(c2ncc3ncnc(Nc4ccc(Oc5ccc6c(c5)ncn6C)c(C)c4)c3n2)C1
MEASUREMENT TARGET: ErbB2 insYVMA (HER2-YVMA, SEQ ID NO: 2) (Homo sapiens, UniProt P04626, INS775YVMA/P1170A)
pIC50: 7.54
--
STRUCTURE SMILES STRING: Clc1cc(Nc2ncnc3cnc(N4CC[C@@]5(CCOC5)C4)nc23)ccc1Oc1ccn2ncnc2c1
MEASUREMENT TARGET: ErbB2 insYVMA (HER2-YVMA, SEQ ID NO: 2) (Homo sapiens, UniProt P04626, INS775YVMA/P1170A)
pIC50: 7.44
--
STRUCTURE SMILES STRING: Cc1cc(Nc2ncnc3cnc(N4CC5(C4)CC5(F)F)nc23)ccc1Oc1ccc2c(c1)ncn2C
MEASUREMENT TARGET: ErbB2 insYVMA (HER2-YVMA, SEQ ID NO: 2) (Homo sapiens, UniProt P04626, INS775YVMA/P1170A)
pIC50: 7.12
--
STRUCTURE SMILES STRING: Cc1cc(Nc2ncnc3cnc(O[C@@H]4CNC[C@@H]4F)nc23)ccc1Oc1ccc2c(c1)ncn2C
MEASUREMENT TARGET: ErbB2 insYVMA (HER2-YVMA, SEQ ID NO: 2) (Homo sapiens, UniProt P04626, INS775YVMA/P1170A)
pIC50: 7.40

* * *

# MEASUREMENT TARGET: ErbB2 insYVMA (HER2-YVMA, SEQ ID NO: 2) (Homo sapiens, UniProt P04626, INS775YVMA/P1170A)
# TEST DESCRIPTION: biochemical
# ASSAY CONTEXT: ErbB2 insYVMA enzyme assay; read-out: Assay 1 IC50
VALUE TYPE: IC50 (nM)

COMPOUND: CN(c1ncc2ncnc(Nc3ccc(Oc4ccn5ncnc5c4)c(Cl)c3)c2n1)[C@H]1CCOC1
MEASUREMENT TARGET: ErbB2 insYVMA (HER2-YVMA, SEQ ID NO: 2) (Homo sapiens, UniProt P04626, INS775YVMA/P1170A)
NUMERIC READOUT: 10.8
//
COMPOUND: Cc1cc(Nc2ncnc3cnc(N=S4(=O)CCOCC4)nc23)ccc1Oc1ccc2c(c1)ncn2C
MEASUREMENT TARGET: ErbB2 insYVMA (HER2-YVMA, SEQ ID NO: 2) (Homo sapiens, UniProt P04626, INS775YVMA/P1170A)
NUMERIC READOUT: 32.2
//
COMPOUND: Cc1cc(Nc2ncnc3cnc(N4CC(C)(O)CO4)nc23)ccc1Oc1ccc2c(c1)ncn2C (stereo not drawn)
MEASUREMENT TARGET: ErbB2 insYVMA (HER2-YVMA, SEQ ID NO: 2) (Homo sapiens, UniProt P04626, INS775YVMA/P1170A)
NUMERIC READOUT: 33

* * *

pIC50: −log10 of the molar value.
// pIC50 collected for EGFR (Homo sapiens (Human), UniProt P00533)

COMPOUND: N#C[C@H]1CCN(c2ncc3ncnc(Nc4ccc(Oc5ccn6ncnc6c5)c(Cl)c4)c3n2)C1
pIC50: ≤ 5.00
//
COMPOUND: Cc1c(Oc2ccc3c(c2)ncn3C)ccc(Nc2ncnc3cnc(N(C)C)nc23)c1F [Example 71, 2,2,2-trifluoroacetate]
pIC50: ≤ 5.00
//
COMPOUND: Cc1cc(Nc2ncnc3cnc(N4CC[C@H](C(C)(C)O)C4)nc23)ccc1Oc1ccc2c(c1)ncn2C
pIC50: ≤ 5.00

* * *

# MEASUREMENT TARGET: EGFR (Homo sapiens (Human))
# Sequence (P00533 25-1210): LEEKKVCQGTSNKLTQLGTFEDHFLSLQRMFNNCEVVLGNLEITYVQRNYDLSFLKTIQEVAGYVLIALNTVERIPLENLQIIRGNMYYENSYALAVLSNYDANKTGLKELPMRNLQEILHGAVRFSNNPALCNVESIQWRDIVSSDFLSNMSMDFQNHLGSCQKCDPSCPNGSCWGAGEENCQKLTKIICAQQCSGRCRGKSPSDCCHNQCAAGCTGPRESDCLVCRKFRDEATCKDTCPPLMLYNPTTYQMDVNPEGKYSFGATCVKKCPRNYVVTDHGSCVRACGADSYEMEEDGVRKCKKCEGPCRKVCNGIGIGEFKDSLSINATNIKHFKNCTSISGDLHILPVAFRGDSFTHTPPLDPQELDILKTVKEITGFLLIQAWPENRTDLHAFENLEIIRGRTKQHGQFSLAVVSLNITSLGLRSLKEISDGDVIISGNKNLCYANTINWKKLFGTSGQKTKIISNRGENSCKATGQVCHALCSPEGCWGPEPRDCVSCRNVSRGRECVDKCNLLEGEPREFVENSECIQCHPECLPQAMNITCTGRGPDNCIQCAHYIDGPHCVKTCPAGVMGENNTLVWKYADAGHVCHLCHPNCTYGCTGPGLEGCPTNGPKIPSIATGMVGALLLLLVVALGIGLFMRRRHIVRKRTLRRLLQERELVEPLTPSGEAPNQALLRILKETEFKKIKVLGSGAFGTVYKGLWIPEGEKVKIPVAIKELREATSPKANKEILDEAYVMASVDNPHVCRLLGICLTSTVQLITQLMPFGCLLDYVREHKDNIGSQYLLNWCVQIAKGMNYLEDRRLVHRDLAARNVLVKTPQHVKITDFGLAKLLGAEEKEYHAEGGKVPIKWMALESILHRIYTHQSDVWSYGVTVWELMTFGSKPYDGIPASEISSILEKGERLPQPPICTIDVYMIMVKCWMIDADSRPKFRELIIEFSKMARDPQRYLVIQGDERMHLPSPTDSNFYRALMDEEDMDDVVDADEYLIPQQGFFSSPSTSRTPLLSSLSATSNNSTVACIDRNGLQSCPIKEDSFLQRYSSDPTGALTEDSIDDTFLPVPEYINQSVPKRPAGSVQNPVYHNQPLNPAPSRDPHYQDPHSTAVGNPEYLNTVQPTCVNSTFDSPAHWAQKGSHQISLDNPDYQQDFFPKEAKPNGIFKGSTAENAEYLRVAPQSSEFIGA
VALUE TYPE: IC50 (µM)

MOLECULE: Cc1cc(Nc2ncnc3cnc(NC4COC4)nc23)ccc1Oc1ccc2c(c1)ncn2C [Example 259]
MEASUREMENT TARGET: EGFR (Homo sapiens (Human))
VALUE TYPE: IC50
RESULT UNIT: µM
VALUE PREFIX: ≥
NUMERIC READOUT: 10
--
MOLECULE: Cc1cc(Nc2ncnc3cnc(N4CC[C@@H](CC#N)C4)nc23)ccc1Oc1ccc2c(c1)ncn2C [Example 201]
MEASUREMENT TARGET: EGFR (Homo sapiens (Human))
VALUE TYPE: IC50
RESULT UNIT: µM
VALUE PREFIX: ≥
NUMERIC READOUT: 10
--
MOLECULE: Cc1cc(Nc2ncnc3cnc(-c4cscn4)nc23)ccc1Oc1ccc2c(c1)ncn2C [Example 235]
MEASUREMENT TARGET: EGFR (Homo sapiens (Human))
VALUE TYPE: IC50
RESULT UNIT: µM
VALUE PREFIX: ≥
NUMERIC READOUT: 10
--
MOLECULE: CCCOc1ncc2ncnc(Nc3ccc(Oc4ccc5c(c4)ncn5C)c(C)c3)c2n1 [Example 221]
MEASUREMENT TARGET: EGFR (Homo sapiens (Human))
VALUE TYPE: IC50
RESULT UNIT: µM
VALUE PREFIX: ≥
NUMERIC READOUT: 10
--
MOLECULE: Cc1cc(Nc2ncnc3cnc(N4C[C@@H](O)C(F)(F)C4)nc23)ccc1Oc1ccc2c(c1)ncn2C [Example 185]
MEASUREMENT TARGET: EGFR (Homo sapiens (Human))
VALUE TYPE: IC50
RESULT UNIT: µM
VALUE PREFIX: ≥
NUMERIC READOUT: 10
--
MOLECULE: Cc1cc(Nc2ncnc3cnc(N4CCC4)nc23)ccc1Oc1ccc2c(c1)ncn2C [Example 36]
MEASUREMENT TARGET: EGFR (Homo sapiens (Human))
VALUE TYPE: IC50
RESULT UNIT: µM
VALUE PREFIX: =
NUMERIC READOUT: 9
--
MOLECULE: Cc1cc(Nc2ncnc3cnc(N4CCOC(C)(C)C4)nc23)ccc1Oc1ccc2c(c1)ncn2C [Example 272]
MEASUREMENT TARGET: EGFR (Homo sapiens (Human))
VALUE TYPE: IC50
RESULT UNIT: µM
VALUE PREFIX: =
NUMERIC READOUT: 9
--
MOLECULE: C[C@@H]1COCCN1c1ncc2ncnc(Nc3ccc(Oc4ccc5c(c4)ncn5C)c(Cl)c3)c2n1 [Example 144]
MEASUREMENT TARGET: EGFR (Homo sapiens (Human))
VALUE TYPE: IC50
RESULT UNIT: µM
VALUE PREFIX: =
NUMERIC READOUT: 6.91
--
MOLECULE: Cc1cc(Nc2ncnc3cnc(N4CCCC4=O)nc23)ccc1Oc1ccc2c(c1)ncn2C [Example 34]
MEASUREMENT TARGET: EGFR (Homo sapiens (Human))
VALUE TYPE: IC50
RESULT UNIT: µM
VALUE PREFIX: ≥
NUMERIC READOUT: 10
--
MOLECULE: Cn1cnc2cc(Oc3ccc(Nc4ncnc5cnc(N6CCC7(CCOC7)C6)nc45)cc3Cl)ccc21 (stereo not drawn) [Example 443]
MEASUREMENT TARGET: EGFR (Homo sapiens (Human))
VALUE TYPE: IC50
RESULT UNIT: µM
VALUE PREFIX: ≥
NUMERIC READOUT: 10
--
MOLECULE: CNc1ncc2ncnc(Nc3ccc(Oc4ccc5csnc5c4)c(C)c3)c2n1 [Example 241]
MEASUREMENT TARGET: EGFR (Homo sapiens (Human))
VALUE TYPE: IC50
RESULT UNIT: µM
VALUE PREFIX: =
NUMERIC READOUT: 1.64
--
MOLECULE: Cc1cc(Nc2ncnc3cnc(N4C[C@@H]5CC[C@H]4CO5)nc23)ccc1Oc1ccc2c(c1)ncn2C [Example 53]
MEASUREMENT TARGET: EGFR (Homo sapiens (Human))
VALUE TYPE: IC50
RESULT UNIT: µM
VALUE PREFIX: ≥
NUMERIC READOUT: 10
--
MOLECULE: Cc1cc(Nc2ncnc3cnc(N4CCOCC4)nc23)ccc1Oc1cc(F)c2c(c1)ncn2C.O=C(O)C(F)(F)F [Example 70, 2,2,2-trifluoroacetate]
MEASUREMENT TARGET: EGFR (Homo sapiens (Human))
VALUE TYPE: IC50
RESULT UNIT: µM
VALUE PREFIX: ≥
NUMERIC READOUT: 10
--
MOLECULE: Cc1cc(Nc2ncnc3cnc(N4C[C@@H]5C[C@H]4CO5)nc23)ccc1Oc1ccc2c(c1)ncn2C [Example 274]
MEASUREMENT TARGET: EGFR (Homo sapiens (Human))
VALUE TYPE: IC50
RESULT UNIT: µM
VALUE PREFIX: =
NUMERIC READOUT: 3.25
--
MOLECULE: Cc1cc(Nc2ncnc3cnc(NC(C)C)nc23)ccc1Oc1ccc2c(c1)ncn2C [Example 261]
MEASUREMENT TARGET: EGFR (Homo sapiens (Human))
VALUE TYPE: IC50
RESULT UNIT: µM
VALUE PREFIX: ≥
NUMERIC READOUT: 10
--
MOLECULE: Cn1cnc2cc(Oc3ccc(Nc4ncnc5cnc(N6CCC(C)(O)CC6)nc45)cc3Cl)ccc21 [Example 480]
MEASUREMENT TARGET: EGFR (Homo sapiens (Human))
VALUE TYPE: IC50
RESULT UNIT: µM
VALUE PREFIX: =
NUMERIC READOUT: 5.04
--
MOLECULE: Cc1cc(Nc2ncnc3cnc(-c4cccnc4)nc23)ccc1Oc1ccc2c(c1)ncn2C [Example 233]
MEASUREMENT TARGET: EGFR (Homo sapiens (Human))
VALUE TYPE: IC50
RESULT UNIT: µM
VALUE PREFIX: =
NUMERIC READOUT: 3.74
--
MOLECULE: COC[C@@H](C)Nc1ncc2ncnc(Nc3ccc(Oc4ccc5c(c4)ncn5C)c(C)c3)c2n1 [Example 61]
MEASUREMENT TARGET: EGFR (Homo sapiens (Human))
VALUE TYPE: IC50
RESULT UNIT: µM
VALUE PREFIX: ≥
NUMERIC READOUT: 10
--
MOLECULE: Cc1cc(Nc2ncnc3cnc(N(C)C[C@@H](C)O)nc23)ccc1Oc1ccc2c(c1)ncn2C [Example 189]
MEASUREMENT TARGET: EGFR (Homo sapiens (Human))
VALUE TYPE: IC50
RESULT UNIT: µM
VALUE PREFIX: =
NUMERIC READOUT: 6.46
--
MOLECULE: Cc1cc(Nc2ncnc3cnc(N4CCC(C)S4(=O)=O)nc23)ccc1Oc1ccc2c(c1)ncn2C (stereo not drawn) [Example 267]
MEASUREMENT TARGET: EGFR (Homo sapiens (Human))
VALUE TYPE: IC50
RESULT UNIT: µM
VALUE PREFIX: =
NUMERIC READOUT: 3.95
--
MOLECULE: Cc1cc(Nc2ncnc3cnc(N4CCN(CC(F)(F)F)CC4)nc23)ccc1Oc1ccc2c(c1)ncn2C [Example 85]
MEASUREMENT TARGET: EGFR (Homo sapiens (Human))
VALUE TYPE: IC50
RESULT UNIT: µM
VALUE PREFIX: ≥
NUMERIC READOUT: 10
--
MOLECULE: Cc1cc(Nc2ncnc3cnc(N4C[C@H]5CCS(=O)(=O)[C@H]5C4)nc23)ccc1Oc1ccc2c(c1)ncn2C (racemic) [Example 92]
MEASUREMENT TARGET: EGFR (Homo sapiens (Human))
VALUE TYPE: IC50
RESULT UNIT: µM
VALUE PREFIX: =
NUMERIC READOUT: 8.78
--
MOLECULE: CON1CCC(Nc2ncc3ncnc(Nc4ccc(Oc5ccc6c(c5)ncn6C)c(C)c4)c3n2)C1 (stereo not drawn) [Example 220]
MEASUREMENT TARGET: EGFR (Homo sapiens (Human))
VALUE TYPE: IC50
RESULT UNIT: µM
VALUE PREFIX: =
NUMERIC READOUT: 1.52
--
MOLECULE: Cc1cc(Nc2ncnc3cnc(N(CC(F)F)CC(F)F)nc23)ccc1Oc1ccc2c(c1)ncn2C [Example 344]
MEASUREMENT TARGET: EGFR (Homo sapiens (Human))
VALUE TYPE: IC50
RESULT UNIT: µM
VALUE PREFIX: ≥
NUMERIC READOUT: 10

Origin of values: patent US11834453B2
